Value source: patent US6936628B2

protocolSummary: Single dose IV toxicokinetic study in dogs
Format: in vivo
runParameters: both sexes, dog, plasma, IV infusion, 0.055 mg/kg, combined across gender
Experimental: The single dose IV toxicokinetics of Compound A were evaluated in dogs as a part of a toxicology study. Compound A, prepared in 50 mM citrate buffer (pH 5), was given by IV infusion (over approximately 2-3 min period) at nominal doses of 0.07 and 0.35 mg/kg (the actual doses were 0.055 and 0.27 mg/kg, respectively) to 2 dogs/sex/dose. […] Plasma concentrations of Compound A were determined using a validated LC/MS/MS assay with a standard curve range of 2-500 ng/mL. […]
attributeMeasured: Cmax
The reply should read as a number followed by its unit.

Value of Cmax reported for the compound C/C(=C\c1csc(CN)n1)[C@@H]1C[C@@H]2O[C@]2(C)CCC[C@H](C)[C@H](O)[C@@H](C)C(=O)C(C)(C)[C@@H](O)CC(=O)O1 (relative stereo) is 104 ng/mL

---

protocolSummary: in vivo
runParameters: Balb/c nu/nu, mouse, po
attributeMeasured: MTD (mg/kg)
Give bare numbers, in mg/kg.

Value of MTD reported for the molecule C/C(=C\c1csc(CN)n1)[C@@H]1C[C@@H]2O[C@]2(C)CCC[C@H](C)[C@H](O)[C@@H](C)C(=O)C(C)(C)[C@@H](O)CC(=O)O1 (relative stereo) is 90

---

protocolSummary: Oral bioavailability in humans
runParameters: in vivo; human patients, oral vs IV, 40 mg/m^2, n = 9; read-out: Bioavailability (SD)
From the text: Compound A was well absorbed orally, providing a favorable drug exposure profile that is consistant with efficacious exposure in preclinical cancer models.
attributeMeasured: bioavailability (%)
Answers are plain numbers, in %.

Value of bioavailability reported for the compound C/C(=C\c1csc(CN)n1)[C@@H]1C[C@@H]2O[C@]2(C)CCC[C@H](C)[C@H](O)[C@@H](C)C(=O)C(C)(C)[C@@H](O)CC(=O)O1 (relative stereo) is 27

---

protocolSummary: in vivo
runParameters: male, Sprague-Dawley, rat, plasma, 2 mg/kg, mean AUC, rats, IA 2 mg/kg, vehicle 2 cremophor:ethanol:water (10:10:80)
attributeMeasured: AUC (ng·h/mL)
Answers are plain numbers, in ng·h/mL.

Value of AUC reported for the compound C/C(=C\c1csc(CN)n1)[C@@H]1C[C@@H]2O[C@]2(C)CCC[C@H](C)[C@H](O)[C@@H](C)C(=O)C(C)(C)[C@@H](O)CC(=O)O1 (relative stereo) is 708

---

protocolSummary: Pharmacokinetics in mice
Assay type: in vivo
runParameters: mouse, plasma; nude mice, oral 15 mg/kg vs IV 5 mg/kg; read-out: absolute oral bioavailability
attributeMeasured: bioavailability (%)
Answers are plain numbers, in %.

Value of bioavailability reported for the compound C/C(=C\c1csc(CN)n1)[C@@H]1C[C@@H]2O[C@]2(C)CCC[C@H](C)[C@H](O)[C@@H](C)C(=O)C(C)(C)[C@@H](O)CC(=O)O1 (relative stereo) is 21

---

protocolSummary: Single dose IV toxicokinetic study in dogs
Format: in vivo
runParameters: both sexes, dog, plasma, IV infusion, 0.27 mg/kg, combined across gender
attributeMeasured: Cmax (ng/mL)
Numbers only, in ng/mL.

Value of Cmax reported for the molecule C/C(=C\c1csc(CN)n1)[C@@H]1C[C@@H]2O[C@]2(C)CCC[C@H](C)[C@H](O)[C@@H](C)C(=O)C(C)(C)[C@@H](O)CC(=O)O1 (relative stereo) [Compound A] is 664

---

protocolSummary: in vivo
runParameters: male, Sprague-Dawley, rat, plasma, 2 mg/kg, mean AUC, rats, IA 2 mg/kg, vehicle 1 ethanol:water (10:90)
attributeMeasured: AUC (ng·h/mL)
Numbers only, in ng·h/mL.

Value of AUC reported for the molecule C/C(=C\c1csc(CN)n1)[C@@H]1C[C@@H]2O[C@]2(C)CCC[C@H](C)[C@H](O)[C@@H](C)C(=O)C(C)(C)[C@@H](O)CC(=O)O1 (relative stereo) is 133

---

protocolSummary: in vivo
runParameters: male, Sprague-Dawley, rat, plasma, 2 mg/kg, pH 7.4, mean AUC, rats, IA 2 mg/kg, vehicle 3 propylene glycol:ethanol:phosphate buffer pH 7.4 (40:5:55)
attributeMeasured: AUC (ng·h/mL)
Numbers only, in ng·h/mL.

Value of AUC reported for the compound C/C(=C\c1csc(CN)n1)[C@@H]1C[C@@H]2O[C@]2(C)CCC[C@H](C)[C@H](O)[C@@H](C)C(=O)C(C)(C)[C@@H](O)CC(=O)O1 (relative stereo) is 210

---

protocolSummary: Pharmacokinetics in mice
Assay type: in vivo
runParameters: mouse, plasma; nude mice, IV 5 mg/kg; read-out: VSS
attributeMeasured: Vd (L/kg)
Answers are plain numbers, in L/kg.

Value of Vd reported for the compound C/C(=C\c1csc(CN)n1)[C@@H]1C[C@@H]2O[C@]2(C)CCC[C@H](C)[C@H](O)[C@@H](C)C(=O)C(C)(C)[C@@H](O)CC(=O)O1 (relative stereo) [Compound A] is 38

---

protocolSummary: Single dose IV toxicokinetics in rats
Format: in vivo
runParameters: both sexes, rat, plasma, IV 1, 5 and 7 mg/kg, across doses and sex
attributeMeasured: AUC

Value of AUC reported for the compound C/C(=C\c1csc(CN)n1)[C@@H]1C[C@@H]2O[C@]2(C)CCC[C@H](C)[C@H](O)[C@@H](C)C(=O)C(C)(C)[C@@H](O)CC(=O)O1 (relative stereo) is 159 to 1940 ng·h/mL

---

protocolSummary: Oral bioavailability in humans
runParameters: in vivo, 40 mg/m2; human patients, oral, 40 mg/m^2, n=10; read-out: Half-Life (SD) (converted)
attributeMeasured: half-life (h)
Give bare numbers, in h.

Value of half-life reported for the molecule C/C(=C\c1csc(CN)n1)[C@@H]1C[C@@H]2O[C@]2(C)CCC[C@H](C)[C@H](O)[C@@H](C)C(=O)C(C)(C)[C@@H](O)CC(=O)O1 (relative stereo) [Compound A] is 29.8

---

protocolSummary: Single dose IV toxicokinetic study in dogs
Format: in vivo
runParameters: both sexes, dog, plasma, IV infusion, 0.055 mg/kg
attributeMeasured: AUC (ng·h/mL)
One number for each entry, in ng·h/mL.

Value of AUC reported for the compound C/C(=C\c1csc(CN)n1)[C@@H]1C[C@@H]2O[C@]2(C)CCC[C@H](C)[C@H](O)[C@@H](C)C(=O)C(C)(C)[C@@H](O)CC(=O)O1 (relative stereo) is 48.3

---

target: UniProt:P05177
Sequence (P05177 1-516): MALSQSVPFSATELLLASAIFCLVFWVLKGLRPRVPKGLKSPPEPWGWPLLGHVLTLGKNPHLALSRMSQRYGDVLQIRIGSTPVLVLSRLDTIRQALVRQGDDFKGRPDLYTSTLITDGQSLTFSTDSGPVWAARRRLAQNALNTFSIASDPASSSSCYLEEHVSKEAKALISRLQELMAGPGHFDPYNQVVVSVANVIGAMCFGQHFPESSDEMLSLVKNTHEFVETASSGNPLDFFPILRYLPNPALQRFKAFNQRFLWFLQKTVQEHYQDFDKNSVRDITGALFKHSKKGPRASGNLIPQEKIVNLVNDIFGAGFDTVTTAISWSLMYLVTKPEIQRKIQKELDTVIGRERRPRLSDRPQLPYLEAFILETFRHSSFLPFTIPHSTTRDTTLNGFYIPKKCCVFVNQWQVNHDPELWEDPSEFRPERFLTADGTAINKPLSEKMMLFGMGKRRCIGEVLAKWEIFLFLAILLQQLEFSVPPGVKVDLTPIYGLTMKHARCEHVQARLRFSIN
attributeMeasured: IC50

Value of IC50 reported for the compound C/C(=C\c1csc(CN)n1)[C@@H]1C[C@@H]2O[C@]2(C)CCC[C@H](C)[C@H](O)[C@@H](C)C(=O)C(C)(C)[C@@H](O)CC(=O)O1 (relative stereo) is > 70 µM

---

protocolSummary: in vivo
runParameters: male, Sprague-Dawley, rat, plasma, other: intraarterial (IA), 2 mg/kg
attributeMeasured: AUC
The reply should read as a number followed by its unit.

Value of AUC reported for the compound C/C(=C\c1csc(CN)n1)[C@@H]1C[C@@H]2O[C@]2(C)CCC[C@H](C)[C@H](O)[C@@H](C)C(=O)C(C)(C)[C@@H](O)CC(=O)O1 (relative stereo) [Compound A] is 2890 ng·h/mL

---

protocolSummary: Single dose pharmacokinetic study in dogs
Type: in vivo, beagle dogs
runParameters: male, beagle, dog, plasma, IV 0.5 mg/kg, read-out: VSS
attributeMeasured: Vd (L/kg)
Answers are plain numbers, in L/kg.

Value of Vd reported for the molecule C/C(=C\c1csc(CN)n1)[C@@H]1C[C@@H]2O[C@]2(C)CCC[C@H](C)[C@H](O)[C@@H](C)C(=O)C(C)(C)[C@@H](O)CC(=O)O1 (relative stereo) is 4.7

---

protocolSummary: in vitro
runParameters: human, Caco-2
attributeMeasured: Papp
The reply should read as a number followed by its unit.

{"smilesEntry": "CN/C(=N/CCSCc1nc[nH]c1C)NC#N", "Papp": "4.9 ×10⁻⁶ cm/s"}

Now consider a different compound.
Value of Papp reported for the compound `OC[C@@H](O)[C@@H](O)[C@H](O)[C@H](O)CO` is 3.2 ×10⁻⁶ cm/s
